- systemUnderTest: human PDHK2 (hPDHK2) (Homo sapiens (Human), UniProt Q15119)
- assay: Inhibitory action of PDHK activity in vitro (kinase reaction, residual PDH activity measured)
- Assay type: biochemical
- conditionLabel: PDHK inhibitory activity, class symbol of IC50
pIC50: −log10 of the molar value.
readoutKind: pIC50

compound	systemUnderTest	result
O=C1CCC(COc2ccc3c(c2)C(O)(C(F)(F)F)c2ccccc2-3)N1 (centres unmarked)	human PDHK2 (hPDHK2) (Homo sapiens (Human), UniProt Q15119)	6.00 to 7.00
OC1(C(F)(F)F)c2ccccc2-c2ccc(Cl)cc21 (centres unmarked)	human PDHK2 (hPDHK2) (Homo sapiens (Human), UniProt Q15119)	< 6.00
O=C(O)CCCOc1cc(Cl)c2c(c1)C(O)(C(F)(F)F)c1ccccc1-2 (single isomer, unassigned) [compound 479]	human PDHK2 (hPDHK2) (Homo sapiens (Human), UniProt Q15119)	< 6.00

Prompt: Look up pIC50 for this compound: Cn1cc(-c2cc(-c3cnn(C)c3)c3c(c2)C(O)(C(F)(F)F)c2ccccc2-3)cn1 (centres unmarked)
Response: > 7.00

Prompt: Look up pIC50 for this compound: COC(=O)c1ccc2c(c1)C(O)(C(F)(F)F)c1ccccc1-2 (centres unmarked)
Response: 6.00 to 7.00

Prompt: Look up pIC50 for this compound: OCCCCOc1cc(-c2cncnc2)c2c(c1)C(O)(C(F)(F)F)c1ccccc1-2 (centres unmarked)
Response: > 7.00

Prompt: Look up pIC50 for this compound: NC(=O)COc1cnc2c(c1)C(O)(C(F)(F)F)c1ccccc1-2 (centres unmarked)
Response: 6.00 to 7.00

Prompt: Look up pIC50 for this compound: Cn1cc(-c2cnc3c(c2)C(O)(C(F)(F)F)c2ccccc2-3)cn1 (centres unmarked)
Response: > 7.00
